# tested_on: RIPK1 (Homo sapiens (Human))
# Sequence (Q13546 1-327): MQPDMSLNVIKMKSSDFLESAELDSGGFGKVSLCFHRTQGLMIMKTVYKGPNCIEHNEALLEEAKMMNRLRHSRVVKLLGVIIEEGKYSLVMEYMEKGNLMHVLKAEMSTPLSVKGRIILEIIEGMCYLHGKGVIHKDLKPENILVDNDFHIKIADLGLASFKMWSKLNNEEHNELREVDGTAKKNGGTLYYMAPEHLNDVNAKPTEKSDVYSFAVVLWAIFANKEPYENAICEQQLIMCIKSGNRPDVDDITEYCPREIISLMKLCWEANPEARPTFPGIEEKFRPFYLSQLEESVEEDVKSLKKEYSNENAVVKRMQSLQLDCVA
# assay_summary: ADP-Glo kinase assay (RIPK1 activity, conversion of ATP to ADP)
# Assay type: biochemical
# particulars: enantiomers separated by SFC; assay not named
measured_property: observed potency relative to the other enantiomer

{"columns": ["sample_smiles", "obs_value"],
 "data": [
  ["Cc1cc(F)c([C@@H]2CC=NN2C(=O)C23CC(COc4cnc(C#N)cn4)(C2)C3)cc1F", "more potent isomer"],
  ["N#Cc1cnc(OCC23CC(C(=O)N4N=CC[C@@H]4c4cc(F)cc(F)c4)(C2)C3)cn1", "less potent isomer"],
  ["N#Cc1cnc(OCC23CC(C(=O)N4N=CC[C@H]4c4cc(F)cc(F)c4)(C2)C3)cn1", "more potent isomer"],
  ["Cc1cc(F)c([C@H]2CC=NN2C(=O)C23CC(COc4cnc(C#N)cn4)(C2)C3)cc1F", "less potent isomer"]
]}

====

# tested_on: UniProt:Q13546
# assay_summary: ADP-Glo kinase assay (RIPK1 activity, conversion of ATP to ADP)
# Assay type: biochemical
# particulars: 5 nM RIPK1, 50 μM ATP, 6 h reaction; read-out: RIPK1 Enzyme Avg IC50
measured_property: IC50 (µM)

These solved cases illustrate the format of a correct answer.
{"columns": ["compound", "IC50 / µM"],
 "data": [
  ["COc1cccc(C(F)C23CC(C(=O)N4N=CCC4c4cc(F)cc(F)c4)(C2)C3)c1 (centres unmarked)", 0.035],
  ["O=C(N1N=CCC1c1cc(F)cc(F)c1)C12CC(C(F)c3cccc(Cl)c3)(C1)C2 (centres unmarked)", 0.031],
  ["N#Cc1cnc(OCC23CC(C(=O)N4N=CCC4c4cc(F)cc(F)c4)(C2)C3)cn1 (centres unmarked)", 0.0083]
]}

1 = O=C(N1N=CCC1c1cc(F)cc(F)c1)C12CC(Cn3ncc4cccc(Cl)c43)(C1)C2 (centres unmarked)
2 = N#Cc1cc(OCC23CC(C(=O)N4CC(F)CC4c4cccc(F)c4)(C2)C3)ccn1 (centres unmarked)
3 = N#Cc1ccc2c(cnn2CC23CC(C(=O)N4CCC4c4cccc(Cl)c4Cl)(C2)C3)c1 (centres unmarked)
4 = Cc1cnn(CC23CC(C(=O)N4N=CCC4c4cc(F)cc(F)c4)(C2)C3)c1C#N (centres unmarked)
5 = Cc1cnn(CC23CC(C(=O)N4N=CCC4c4cc(F)cc(F)c4)(C2)C3)c1 (centres unmarked)
# rank by IC50, ascending (min first) Put the labels in the requested order and write them down. 1, 4, 5, 2, 3

a = N#Cc1cnc2cn(CC34CC(C(=O)N5N=CCC5c5cc(F)cc(F)c5)(C3)C4)nc2c1 (centres unmarked)
b = COc1ccn(CC23CC(C(=O)N4N=CCC4c4cc(F)cc(F)c4)(C2)C3)n1 (centres unmarked)
API: POST /compare with a and b ; response names the item with higher IC50. Bench note: the answer is the label of the chosen record. a
(a: 0.22 µM, b: 0.057 µM)

a = O=C(N1N=CCC1c1cc(F)cc(F)c1)C12CC(COc3ccccc3Cl)(C1)C2 (centres unmarked)
b = O=C(N1N=CCC1c1cc(F)cc(F)c1)C12CC(Cc3nnn[nH]3)(C1)C2 (centres unmarked)
c = O=C(N1N=CCC1c1cc(F)cc(F)c1)C12CC(Cn3nc4ccccc4n3)(C1)C2 (centres unmarked)
d = Cc1ncnc(OCC23CC(C(=O)N4CC(F)CC4c4cccc(F)c4)(C2)C3)c1F (centres unmarked)
e = Cc1ccc(C2CC=NN2C(=O)C23CC(Cn4ncc5cc(C#N)ccc54)(C2)C3)nc1 (centres unmarked)
Rank items: key IC50, increasing. Respond with the label ranking, as requested. c, a, e, d, b
(c: 0.019 µM, a: 0.031 µM, e: 0.048 µM, d: 0.079 µM, b: 0.363 µM)

All values here come from patent US20250214942A1.
